- Test system: B16F10 tumor cells
- assayOverview: Tumor growth delay in B16F10 mouse melanoma
- Format: in vivo
- particulars: 80 mg/kg fumagillin analog equiv., IV, q3d × 4, BDF1 mice
reportedProperty: % TGD

• CO[C@H]1[C@H](C2(C)O[C@@H]2CC=C(C)C)[C@]2(CC[C@H]1OC(=O)NC(=O)CSCCNC(=O)C1CCCN1C(=O)OCC1c3ccccc3-c3ccccc31)CO2 (stereo partly shown) [Compound 31] = 20-50%
• COC(=O)C(=O)O[C@@H]1CC[C@]2(CO2)[C@@H](C2(C)O[C@@H]2CC=C(C)C)[C@@H]1OC (stereo partly shown) [Compound 16] = 20-50%
• CO[C@H]1[C@H](C2(C)O[C@@H]2CC=C(C)C)[C@]2(CC[C@H]1OC(=O)NC(=O)CSc1cccc(N)c1)CO2 (stereo partly shown) [Compound 35] = 20-50%
• CO[C@H]1[C@H](C2(C)O[C@@H]2CC=C(C)C)[C@]2(CC[C@H]1NC(=O)CCl)CO2 (stereo partly shown) [Compound 44] = 5-20%
• COc1ccc2c(ccn2C(=O)O[C@@H]2CC[C@]3(CO3)[C@@H](C3(C)O[C@@H]3CC=C(C)C)[C@@H]2OC)c1 (stereo partly shown) [Compound 23] = 5-20%
• CO[C@H]1[C@H](C2(C)O[C@@H]2CC=C(C)C)[C@]2(CC[C@H]1OC(=O)N[C@H](C)c1ccccc1)CO2 (stereo partly shown) [Compound 12] = 5-20%
• CO[C@H]1[C@H](C2(C)O[C@@H]2CC=C(C)C)[C@]2(CC[C@H]1OC(=O)N1CCN(CCO)CC1)CO2 (stereo partly shown) [Compound 7] = 5-20%
